Entries and their measured 3' UTR reporter interaction score follow.
Test system: MYC
Experiment: 3' UTR reporter interaction score (median-centred robust z-score of log2 firefly/Renilla activity); higher = less repression of the 3' UTR reporter
Conditions: HEK293T; 48 h

Solved cases (5 shown):
{"columns": ["ITEM SEQUENCE", "MEASURED ON", "RECORDED VALUE"],
 "data": [
  ["AAUAAUACAUGGUUGAUCUUU", "MYC", 0.609],
  ["UUUGGCACUAGCACAUUUUUGC", "MYC", 0.306],
  ["AUGACCUAUGAAUUGACAGAC", "MYC", 1.39],
  ["AGACCCUGGUCUGCACUCUAU", "MYC", 2.47],
  ["UUGAGAAUGAUGAAUCAUUAGG", "MYC", 0.0578]
]}

Q. Supply reported 3' UTR reporter interaction score belonging to this sequence: AUCCCUUGCAGGGGCUGUUGGGU
A. 0.108

Q. Supply reported 3' UTR reporter interaction score belonging to this sequence: UAUGUAAUAUGGUCCACAUCUU
A. 0.455

Q. Supply reported 3' UTR reporter interaction score belonging to this sequence: UGGUUUACCGUCCCACAUACAU
A. -0.285

* * *

Tested on: MYT1L
Experiment: 3' UTR reporter interaction score (median-centred robust z-score of log2 firefly/Renilla activity); higher = less repression of the 3' UTR reporter
Conditions: HEK293T; 48 h
READOUT TYPE: 3' UTR reporter interaction score
The reply should be a number, written without any unit.

Solved cases (6 shown):
{"columns": ["ITEM SEQUENCE", "3' UTR reporter interaction score"],
 "data": [
  ["AGACCUGGCCCAGACCUCAGC", -3.18],
  ["AAAGUGCAUCUUUUUAGAGGAU", -0.436],
  ["UGUAGUGUUUCCUACUUUAUGGA", 1.44],
  ["UGUGACAGAUUGAUAACUGAAA", -1.77],
  ["UAGGUUAUCCGUGUUGCCUUCG", -0.174],
  ["GGUCCAGAGGGGAGAUAGG", 0.466]
]}

Q. Supply reported 3' UTR reporter interaction score belonging to this sequence: AGUGGUUUUACCCUAUGGUAG
A. 1.52

Q. Supply reported 3' UTR reporter interaction score belonging to this sequence: UCGUGUCUUGUGUUGCAGCCG
A. -0.0239

* * *

Tested on: FBXW7
Assay: 3' UTR reporter interaction score (median-centred robust z-score of log2 firefly/Renilla activity); higher = less repression of the 3' UTR reporter
Conditions: HEK293T; 48 h
READOUT TYPE: 3' UTR reporter interaction score

{"columns": ["ITEM SEQUENCE", "MEASURED ON", "3' UTR reporter interaction score"],
 "data": [
  ["UCCCUGAGACCCUUUAACCUGUG", "FBXW7", -0.449]
]}

Q. Supply reported 3' UTR reporter interaction score belonging to this sequence: ACCAUCGACCGUUGAUUGUACC
A. -0.0205

Q. Supply reported 3' UTR reporter interaction score belonging to this sequence: UGUGUCACUCGAUGACCACUGU
A. 1.58

Q. Supply reported 3' UTR reporter interaction score belonging to this sequence: CAAGUCACUAGUGGUUCCGUUUA
A. 1.35

Q. Supply reported 3' UTR reporter interaction score belonging to this sequence: UGAUAUGUUUGAUAUAUUAGGU
A. 0.769
